Data origin: PubChem BioAssay

- procedure.text: binders from COS7 lysate, DM2A8 probe, primary screen, torsin A project, cell lysate, small-molecule microarray, fluorescence 635/667 (AID 1065)
- conditions: higher = more signal, COS7 lysate expressing mutant human TOR1A
# Lookup of reported composite z-score keyed by entry
// keep it numeric: no unit symbol after the value

molecule | composite z-score
C#CCCCON=C1C[C@@H](O)[C@@H](O)[C@@H]2[C@@H]3C(=O)N(CCC(=O)OCC)C(=O)[C@@H]3CC[C@H]12 | 0.294
COC(=O)CC=C[C@@H](C)[C@H](OCc1cccc(-c2ccccc2)c1)C1CCCCC1 | 0.0473
COc1ccc(O[C@H]2C=C[C@@H](c3ccccc3)O[C@@H]2CON=C(C)C)cc1 | -0.0694
CC(C)=NOC[C@@H](C)[C@H](OCc1ccccc1)C(C)C | -0.381
CC(=O)O[C@H]1C2=CO[C@H](C)[C@H]3[C@H]4C5=C([C@H](O)[C@H]6O[C@H]6C5=O)[C@H](OC4C)[C@@]23C(=O)[C@@H]2O[C@@H]21 (stereo partly specified) | 0.0382

Shift focus to the following entry.
Field request: composite z-score | item: CCOC(=O)NN=C1C[C@@H](O)[C@@H](O)[C@@H]2[C@@H]3C(=O)N(c4cccc(Oc5ccccc5)c4)C(=O)[C@@H]3CC[C@H]12 0.192
